Molecular target: T1, PF4/heparin complex (human PF4 complexed with heparin) (human, UniProt P02776 32-101)
T1 construct: Multimeric complex of PF4 with heparin (not a protein); In the EIAs: PF4 captured on biotinylated heparin on streptavidin plates; In the SRA: platelets with 0.2 U/mL heparin; also called PF4 and heparin complexes
T1 sequence: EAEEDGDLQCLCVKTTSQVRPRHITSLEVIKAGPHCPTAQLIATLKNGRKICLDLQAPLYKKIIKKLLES
Assay: competition EIA, scFv 50 µg/mL; competitor HIT-positive sera antibodies, n=10
Could you please report measured mean % inhibition of serum antibody binding for the items listed next?

Quick one: give measured mean % inhibition of serum antibody binding for Mutant C scFv, scFv(S50N, Y53H) (scFv, VL-linker-VH; histidine-tagged, from E. coli BL21; also called Mut C; not shown: histidine tag from the pADL-22c vector) scFv: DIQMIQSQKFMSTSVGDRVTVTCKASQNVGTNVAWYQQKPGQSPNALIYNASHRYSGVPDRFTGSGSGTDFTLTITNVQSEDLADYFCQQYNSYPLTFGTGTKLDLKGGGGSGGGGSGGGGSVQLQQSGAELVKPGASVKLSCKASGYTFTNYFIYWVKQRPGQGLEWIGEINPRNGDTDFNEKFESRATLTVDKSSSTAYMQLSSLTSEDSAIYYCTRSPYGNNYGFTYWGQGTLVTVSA
50.6%

// next entry
Quick one: give measured mean % inhibition of serum antibody binding for Wildtype scFv (KKO-derived single chain variable fragment) (scFv, VL-(G4S)3 linker-VH; expressed in E. coli BL21 from pADL-22c, purified on Ni-NTA as histidine-tagged scFv, about 28 kDa; also called WT; KKO-scFv; not shown: histidine tag from the pADL-22c vector) scFv: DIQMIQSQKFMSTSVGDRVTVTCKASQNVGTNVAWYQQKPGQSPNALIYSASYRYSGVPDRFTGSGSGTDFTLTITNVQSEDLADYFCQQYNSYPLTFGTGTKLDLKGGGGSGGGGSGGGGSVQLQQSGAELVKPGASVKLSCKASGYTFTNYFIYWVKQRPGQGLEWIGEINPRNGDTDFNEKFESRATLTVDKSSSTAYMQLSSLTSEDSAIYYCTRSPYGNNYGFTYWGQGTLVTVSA
44.7%
